# subjectOfTest: human GLP-1 receptor (hGLP1R) (human, UniProt P43220 24-463)
# experiment: cell-based or functional assay
Numbered stars: 1 amine (or outer) side, 2 acyl side, 3 side chain; on linkers, the order of the positions; unused ones are H or OH. Square brackets hold non-standard residues; d marks the D form. Side chains are listed from the residue outwards. Ends that are not written are not given here. * marks the point of attachment. C20 diacid = O=C(O)CCCCCCCCCCCCCCCCCCC(=O)*; γGlu = O=C(O)[C@H](CCC(=O)[*:2])N[*:1]; AEEA = NCCOCCOCC(=O)O; Aib = CC(C)(N)C(=O)O
Could you please report measured hGLPR1 PEC50 (purified peptide) for the items listed next?

Suppose we examine the binder H[Aib]EGTFTSDVSRLK([AEEA-AEEA-γGlu-C20 diacid])EEA[Aib]LQRFLEHLVEAA-NH2 [SEQ ID NO: 208] ; what hGLPR1 PEC50 (purified peptide) value has been reported? 10.6 -log M

Suppose we examine the binder H[Aib]EGTFTSDVSELK([AEEA-AEEA-γGlu-C20 diacid])EEA[Aib]LQRFLEHLVEAA-NH2 [SEQ ID NO: 210] ; what hGLPR1 PEC50 (purified peptide) value has been reported? 11 -log M

Suppose we examine the binder H[Aib]EGTFTSDVSELK([AEEA-AEEA-γGlu-C20 diacid])EEA[Aib]LQRFLEHLV-NH2 [SEQ ID NO: 168] ; what hGLPR1 PEC50 (purified peptide) value has been reported? 10.9 -log M

Suppose we examine the binder H[Aib]EGTFTSDVSRLLEEA[Aib]LQRFLEK([AEEA-AEEA-γGlu-C20 diacid])LVEAA-NH2 [SEQ ID NO: 212] ; what hGLPR1 PEC50 (purified peptide) value has been reported? 10.7 -log M

Suppose we examine the binder H[Aib]EGTFTSDVSYLK([AEEA-AEEA-γGlu-C20 diacid])EEA[Aib]LQRFLEHLV-NH2 (also: table footnote: C20DA or C18DA) [SEQ ID NO: 203] ; what hGLPR1 PEC50 (purified peptide) value has been reported? 10.8 -log M
